B1: TPR t1 (parent)
chain: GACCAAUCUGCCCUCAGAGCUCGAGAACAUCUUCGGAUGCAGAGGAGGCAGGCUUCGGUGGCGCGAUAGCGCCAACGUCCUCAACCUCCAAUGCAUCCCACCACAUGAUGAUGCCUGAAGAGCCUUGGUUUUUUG

- Variants of: B1
- assay.notes: polymerase ribozyme fitness, log enrichment relative to wild type (log ratio); higher = more active; in vitro selection for triplet polymerase activity
Class membership depends on polymerase ribozyme fitness (log ratio) alone; the intervals are low: < -4; moderate: ≥ -4 and < -0.7; high: ≥ -0.7

INSERT INTO measurements (entry_sequence, category) VALUES
  ('GACCAAUCUGCCCUCAGAGCUCGAGAACAUCUUCGGAUGCAGAGAAGGCAGGCUUCGGUGGCGCGAUAUCGCCAACGUCCUCAACCUCCAAUGCAUCCCACCCCAUGAUGAUGCCUGAAGAGCCUUGGUUUUUUG [G45A G69U A103C]', 'moderate'),
  ('GACCAAUCUGCCCCCAGAGCUCGAGAACAUCUUCGGAUGCAGAGGAGGCAGGCUUCGGUGGCGCGAUAGCGCCAACAUCCUCAACCUCCAAUGCAUCCCACCACAUGAUGAUGCCUGAAGAGCCUUGGUUUUUUG [U14C G77A]', 'moderate');

Task item: Kindly identify the class of GACCAAUCUUCCCUCAGAGCUCGAGAACAUCUUCGGAUGCAGAGGAGGCAGGCUUCGGUGGCGCGAUAGCGUCAACGUCCUCAACCUCCAAUGCAUCCCACCACAUGAUGAUGCCUGAAGAGCCUUGGUUUUUUG [G10U C72U] .
Reply: high

Task item: Cool, now GACCAAUCUGCCCUCAGAGCUCGAGAACAUCUUCGAAUGCAGAGGAGGCAGGCUUCGGUGGCGCGAUAGCGCCAACGUCCUCAACGUCCAAUGCAUCCCACCACAUGAUGAUGCCUGAAGAGCCUUGGUUUUUUG [G36A C86G]
Reply: moderate

Task item: Cool, now GACCAAUCUCCCCUUAGAGCUCGAGAACAUCUUCGGAUGCAGAGGAGGCAGGUUUCGGUGGCGCGAUAGCGCCAACGUCCUCAACCUCCAAUGCAUCCCACCACAUGAUGAUGCCUGAAGAGACUUGGUUUUUUG [G10C C15U C53U C123A]
Reply: high

Task item: Cool, now GACCAAUCUGCCCUCAGAGCUCGAGAACAUCUUCGGAUGCAGAGGACGCAGGCUUCGGUGACGCGAUAGCGCCAACGUCCUCAACCACCAAAGCAUCCCACCACAUGAUGAUGCCUGAAGAGCCUUGGUUUUUUG [G47C G61A U87A U92A]
Reply: low
